test system: Mus musculus; assay: Toxicity in ip dosed mouse; format: organism-based; details: in vivo
measured endpoint: Activity (g/kg)
Kindly provide the numeric value in g/kg only, without the unit symbol.

compound_structure_string=S=C1SSCCN1CCCCC1CCCCC1 measured_endpoint=Activity value=0.1
compound_structure_string=CN(C)C(=S)SSc1ccccc1C(=O)O measured_endpoint=Activity value=0.1
compound_structure_string=CN(C)C(=S)SSc1ccc(Cl)cc1 measured_endpoint=Activity value=1
compound_structure_string=O=C(O)c1ccccc1SSC(=S)N1CCOCC1 measured_endpoint=Activity value=0.1

Sample CCCCCCCCCCN1CCSSC1=S — what was its Activity?
0.1
